test.details: NOD1 signaling inhibitors, primary screen, cell-based, luminescence, uHTS (AID 1578);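 also: HEK-293T reporter cells stimulated with the NOD1 agonist gamma-tri-DAP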
settings: NOD1-driven NF-kB luciferase reporter cells, at 4 µM, active compounds read high
Screen size: about 290,000 compounds; about 3,000 (1%) were called active. Shown is part of a subset that was picked to be rich in actives.
Response key: MET means inhibition >= -10%; NOT MET means inhibition < -10%.

Item COCCN(C(=O)C(=O)NC1CCCC1)C(C(=O)NC1CCCC1)c1ccccc1F (stereo not given) with inhibition of -10% or above? NOT MET

Exam item: decide whether the reported inhibition for COCCN(C(=O)CCC(=O)Nc1cc(C)on1)C(C(=O)NC1CCCC1)c1ccccc1C (stereo not given) is at least -10%. NOT MET

Given the entry COc1ccc(C(C(=O)NC2CCCC2)N(C(=O)c2ccoc2C)c2ccc(C)cc2)cc1 (stereo not given) , answer whether its inhibition meets or surpasses -10%. NOT MET

Check the entry COC(CN(C(=O)CCl)C(C(=O)NC1CCCCC1)c1ccc(C)cc1)OC (stereo not given) : does inhibition equal or exceed -10%? MET

Item `COc1ccc(C(C)(C)C)cc1NC(=O)CCNC(=O)c1ccco1` with inhibition of -10% or above? NOT MET

###

test.details: NOD1 signaling inhibitors, primary screen, cell-based, luminescence, uHTS (AID 1578);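 also: HEK-293T reporter cells stimulated with the NOD1 agonist gamma-tri-DAP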
settings: NOD1-driven NF-kB luciferase reporter cells, at 4 µM
Among all 290,000 compounds or so, about 3,000 (1%) were called active. No stated cut-off is given here; in the data, active means inhibition mostly above about 36% (no sharp cut-off); inactive means mostly below about 34%. What follows is part of a selection rich in actives, with near analogues and random picks from the rest.
Give one outcome, nothing more. List: y for active, n for inactive

What was the test verdict on `COc1ccc(CNC(=O)Cc2cn(C)c3ccccc23)c(OC)c1` ? n

For this compound, state the assay outcome: `Cc1nn(-c2ncc(C(F)(F)F)cc2Cl)c(=O)n1-c1c(F)cccc1F` n

Record lookup: outcome of this test for COc1ccc(-c2[nH]ncc2CN2CCCC2c2nonc2C)c(F)c1 (stereo unspecified) ? n

Which outcome was assigned to `Cn1ccnc1SCC(=O)c1ccc([N+](=O)[O-])cc1` in this test? n

What did this assay record as the result for `COc1ccc2c(CC(=O)Nc3ccccc3OC)coc2c1` ? y

Entry `COc1ccccc1NC(=O)Cc1coc2cc(C)ccc12` : call = ? n

###

test.details: NOD1 signaling inhibitors, primary screen, cell-based, luminescence, uHTS (AID 1578);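 also: HEK-293T reporter cells stimulated with the NOD1 agonist gamma-tri-DAP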
settings: NOD1-driven NF-kB luciferase reporter cells, at 4 µM, active compounds read high
Screen size: about 290,000 compounds; about 3,000 (1%) were called active. The full list was thinned out, with actives kept by preference.
recorded.metric: inhibition

May I ask what inhibition has been recorded for `O=S1(=O)CCOCCCN1Cc1ccccc1` ? -16.6% (inactive)

So what does the record say about inhibition for C=CCn1c(=O)c2ccccc2n2c(SC(C)C(N)=O)nnc12 (stereo unspecified) ? -5.9% (inactive)

Sample `O=S1(=O)CCOCCCN1Cc1cccc(F)c1` — what was its inhibition? -39.7% (inactive)

Recorded inhibition of `CN(C)S(=O)(=O)c1cccc(NC(=O)c2cc3ccccc3o2)c1` , please. -40.6% (inactive)

Given the compound `Brc1ccc(-c2ccc(/C=N/Nc3nncc(-c4ccccc4)n3)o2)cc1` , what is its reported inhibition? -106% (inactive)

Look up inhibition: `CCCC(=O)NCCc1nc2ccccc2n1CCC` -14.2% (inactive)
